From: a melting point compilation (Tetko et al.; mined from patent text by program, amines drawn as free bases though some values may be those of a salt)

assay-metric: melting point

// known answers, use as guide
COc1nc(C)c(N2CCCn3c2nc2c(Cl)ccc(C(OCC(F)(F)F)C4CC4)c23)c(C)n1 (stereo not given); 225 to 227 °C
O=C1C(Cl)=C(c2ccccc2)C(=O)N1c1ccccc1; 82 to 83 °C
C=CC(=O)NC1CCCCC1; 109 to 110 °C
CCN=C(NC#N)NCCSCc1ncccc1Br; 123 to 124 °C
CC(C)(C)ONC(=O)Oc1ccccc1; 124 to 126 °C

// each listed molecule needs a value for melting point
1. CCOC(=O)Cc1csc(NC(=O)C(N)Cc2cccs2)n1 (stereo not given)
2. COc1ccc(N(C(=O)CNC(=O)Nc2cccc(C)c2)c2ccccc2)cc1

Out:
1. 98 to 102 °C
2. 182 °C

* * *

assay-metric: melting point

// known answers, use as guide
COc1ccc(-c2ccc(-c3ccc(C(=O)O)cc3)cc2-c2ccc3c(c2)C(C)(C)CCC3(C)C)cc1; 112 to 115 °C
CCOC(=O)COc1ccc(NC(=O)c2csc(NC(=N)N)n2)cc1; 206 °C
O=c1c2cc(F)ccc2nc(NCc2ccccn2)n1-c1ccccc1Cl; 156 to 158 °C
Oc1cc(-c2ccc(F)cc2)nc2ccsc12; 316 to 318 °C
Cc1ccc(C(=S)Oc2nc[nH]c2C(N)=O)cc1; 219 °C
Cc1ccccc1C(CCC(=O)O)Oc1cc(OCc2ccsc2)ccc1C(=O)C(=O)O (racemic); 173 to 175 °C

// each listed compound needs a value for melting point
1. CNc1nc(O)cc(O)n1
2. O=C(Nc1nccs1)C(CC1CCCC1)c1ccc(NS(=O)(=O)C(F)(F)F)cc1 (configuration not stated)
3. CC(C)NC(=O)OCC(=O)c1ccccc1
4. CC(=O)c1ccc(Nc2cccc(-c3cncnc3)c2)c([N+](=O)[O-])c1
5. CC(=O)C(=[N+]=[N-])C(=O)NCCO
6. O=C(O)c1ccc2nc3c(c(=O)n2c1)CCC3=Cc1cccc(O)c1
7. CC(=O)Oc1c(C(C)(C)C)cc(C=[N+]([O-])CC(C)C)cc1C(C)(C)C
8. NC(=O)c1nnn(Cc2cc(Cl)c(C(=O)c3ccc(Cl)cc3)c(Cl)c2)c1N

Out:
290 °C
70 to 74 °C
108 to 110 °C
131 to 132 °C
69 to 70 °C
> 320 °C
177 to 180 °C
198 to 200 °C

// each listed compound needs a value for melting point
1. O=S1c2ccccc2N(CCCCl)c2ccccc21
2. NC(=O)c1nc(-c2ccncc2)nc2c1NC(=O)CN2c1ccccc1
3. Cc1ccc(N)c(C(N)=O)c1
4. CCc1cccc(C)c1CNc1cc(Br)cc2c1ncn2C
5. CCCCNc1nc2ccccc2n2ncc(C(=O)OCC)c12

Out:
1. 171 to 173 °C
2. 298 to 304 °C
3. 171 to 174 °C
4. 132 to 134 °C
5. 96 °C

// each listed compound needs a value for melting point
1. O=C1CCC2(CC1)CCC(O)CC2
2. CCOC(=O)C(=Cc1cccn2cc(Br)nc12)N=[N+]=[N-]
3. CCOC(=O)c1ccc(NCC(C)Oc2ccc(Cl)c3ccccc23)cc1 (configuration not stated)

Out:
1. 65 to 67 °C
2. 149 to 151 °C
3. 122 °C

* * *

assay-metric: melting point

O=c1oc(-c2ccccc2)cc(O)c1SCCc1cccc(Cl)c1; 133 to 134 °C
Cc1nc(-c2ccccc2)nc(N2c3ccccc3CC2C(=O)N(C)c2ccc(Cl)cc2)c1C (stereo not given); 236 to 238 °C
O=C(Nc1ccc2c(c1)C=CC2)C(F)(F)F; 132 °C
COc1cc(C=O)cc(OC)c1N; 94 to 96 °C
Cn1cnc(COc2nc3c(cc2C(C)(C)C)nnn3-c2ccccc2F)n1; 127 to 129 °C
CCCCCCCCCCCCCCCCSCC(C)(CO)C(=O)OC (stereo not given); 25 to 27 °C
COc1cccc(Sc2c(C)n(CC(=O)O)c3ccc(NS(C)(=O)=O)cc23)c1; 292 °C
COCc1cc2c(s1)CCCc1cc(=O)n(-c3ccc(C)cc3)nc1-2; 109 to 110 °C

// each listed compound needs a value for melting point
1. Cn1nnnc1-c1cc(-c2ccc(F)cc2)sc1-c1ccc(F)cc1
2. COc1cccc(CN2CCC(N3C(=O)Nc4ccccc4C3c3cccc(O)c3)CC2)c1 (stereo not given)

Out:
175 to 176 °C
> 250 °C

* * *

Would you kindly list melting point for each of these molecules?

// known answers, use as guide
O=Cc1ccn2c1CCC2; 58 °C
CN(C1=CC(=O)CC1)[C@@H]1c2cc(C#N)ccc2OC(C)(C)[C@H]1O (relative stereo); 271 to 274 °C
Cc1cccc(C(=O)O)c1N(C)S(=O)(=O)c1ccc(OCCCCNC(=O)c2cc3ccccc3o2)cc1; > 200 °C
CCCCC(Cc1ccc(OCCNC(=O)c2ccc(-c3ccc(OC)cc3)cc2)cc1)C(=O)O (stereo not given); 166 to 168 °C
CCOC(=O)/C(=N\OC1CCS(=O)(=O)C1)c1csc(N)n1 (stereo not given); 147 to 148 °C

// each listed molecule needs a value for melting point
1. COC(=O)c1c(Cl)cccc1S(N)(=O)=O
2. CC1(c2ccc(I)cc2)CO1 (stereo not given)
3. Cc1ccc(N[C@H](Cc2c[nH]c3ccccc23)C(=O)O)cc1
4. COc1ccccc1-c1ccc(C(=O)N2Cc3ccc(C(=O)NCc4cccn4C)n3Cc3ccccc32)cc1
5. CC(C)C[C@@H](COCC(N)=O)NC(=O)OCc1ccccc1

Out:
1. 144 to 149 °C
2. 44 to 45 °C
3. 146 to 148 °C
4. 148 to 150 °C
5. 78 to 79 °C

// each listed molecule needs a value for melting point
1. Nc1ccccc1NC(=O)c1ccc(CNc2c(NCc3cccnc3)c(=O)c2=O)cc1
2. Cc1ccc2c(n1)Nc1ccccc1N(C)C2=O
3. CC(=O)NC12CC3(C)CC(C)(CC(O)(C3)C1)C2
4. CCOC(=O)NCn1cccc1C(=O)c1ccc(Cl)cc1Cl
5. CC(C)CC1(C(CCN2C(=O)c3cc(Cl)c(Cl)cc3C2=O)C(=O)NO)CCN(CCc2ccccc2)C1=O (stereo not given)
6. Cc1ccc(-c2c3ccccc3nc3ccc(N(S(C)(=O)=O)S(C)(=O)=O)cc23)cc1
7. COC(=O)c1ccc(CCc2nc(-c3ccccc3)oc2C)cc1

Out:
1: 230 °C; 2: 192 to 194 °C; 3: 194 to 195 °C; 4: 79 to 80 °C; 5: 207 to 208 °C; 6: 217 to 219 °C; 7: 59 to 60 °C

// each listed molecule needs a value for melting point
1. CC1Oc2ccc(C3=NNC(=O)CC3)cc2NC1=O (stereo not given)
2. COc1ccc(OCc2ccccc2)cc1CBr
3. C=CCCC(=O)N1C(=O)OC[C@@H]1C(C)C
4. COc1cccc(-c2cn3cccc(C=O)c3n2)c1
5. CN(C)c1ccc2nc(-c3c[nH]c4ccccc34)[nH]c(=O)c2c1

Out:
275 to 276 °C
88 to 90 °C
119 to 120 °C
71 to 73 °C
> 300 °C

// each listed molecule needs a value for melting point
1. CN(CCNc1ccnc2c(NC(=O)c3c(Cl)cccc3Cl)cccc12)C(=O)n1ccnc1
2. Cn1cc(-c2cc(-c3cnc4ccccc4c3)ccn2)n(-c2ccc(C(C)(C)C(N)=O)cc2)c1=O
3. CCCCn1c(=O)c2nn(S(=O)(=O)Cc3ccccc3)cc2n(CCCC)c1=O
4. COc1ccc(C)cc1NC(=O)Nc1ccc(N2CCCN(C(=O)Nc3ccc(OCCO)cc3C(F)(F)F)CC2)cc1
5. COC(=O)C1=C(S(=O)(=O)NC(=O)Nc2nc(C)cc(OC)n2)CCC1

Out:
202 °C
259 °C
90 to 93 °C
118 to 120 °C
161 to 163 °C

// each listed molecule needs a value for melting point
1. CC(=O)OC(C)(N=NC(C)(OC(C)=O)C(C)C)C(C)C (stereo not given)
2. CCCCCCCCCCCCCCCC(=O)c1c(Br)cc(OC)c(OC)c1C(=O)NC[C@@H]1CCCN1CC
3. Cc1c[nH]c2c([N+](=O)[O-])ccc(C)c2c1=O
4. CCCc1cc(F)c2occ(C)c2c1O
5. CN(CCCN1c2ccccc2CCc2ccccc21)c1ncccc1C(=O)O

Out:
55 to 62 °C
46 to 48 °C
250 to 262 °C
53 to 54 °C
133 to 135 °C

// each listed molecule needs a value for melting point
1. COc1cc(CN2C(=O)c3ccsc3CC2C(=O)O)cc(OC)c1OC (stereo not given)
2. O=C(Cn1ccnc1)c1ccc(Cl)cn1
3. C#CCNC1=NS(=O)(=O)N=C1NCCSCc1csc(NC(=N)N)n1
4. CC(C)c1nccc2c(CNC(=O)C(Cl)Cl)cccc12
5. CC(C)C(NC(=O)CCc1ccccn1)C(=O)NC(Cc1ccccc1)C(O)C(Cc1ccccc1)NC(=O)C(NC(=O)CCc1ccccn1)C(C)C (stereo not given)

Out:
1. 208 °C
2. 122 to 129 °C
3. 176 to 178 °C
4. 151 °C
5. 216 to 218 °C

// each listed molecule needs a value for melting point
1. COc1ccc(-c2cc(F)cc3c2NC(CN)CO3)cc1 (stereo not given)
2. COc1cc(OC)c(C(O)C(Cl)(Cl)Cl)cc1OC (stereo not given)
3. CC1(C)C(=O)N(CCN2CCc3c([nH]c4ccccc34)C2)c2ccccc21

Out:
1. 72 °C
2. 162 to 164 °C
3. 156 to 158 °C
